All values here come from paper PMC5717258.

The reader will find reported BAFP, CPM3 goldfish caged values listed item by item below.
Assay: Plasma bioaccumulation factor (BAFP), goldfish
Assay type: in vivo, goldfish (Carassius auratus)
Settings: CPM3
Method: Bioaccumulation factor (BAFP) was calculated as concentration in fish plasma (ng/g × 1000) divided by concentration in water (ng/L). Two widely used modeling approaches for predicting organic contaminant bioaccumulation were assessed: the BCF-BAF model for whole body BAFs[53] and the fish-plasma concentration calculation of Huggett et al.[35] modified by Berninger et al.[54]. […]
A number alone suffices; assume L/kg.

- COMPOUND: "CCN(CC)C(=O)c1cccc(C)c1 [DEET, N,N-Diethyl-m-toluamide]"
  BAFP, CPM3 goldfish caged, L/kg: 4
- COMPOUND: "C[C@H](O)C(=O)Nc1c(I)c(C(=O)NC(CO)CO)c(I)c(C(=O)NC(CO)CO)c1I"
  BAFP, CPM3 goldfish caged, L/kg: 13
- COMPOUND: "CN(C)CCCC1(c2ccc(F)cc2)OCc2cc(C#N)ccc21 (stereo not shown)"
  BAFP, CPM3 goldfish caged, L/kg: 52

Then this compound:
What BAFP, CPM3 goldfish caged value was documented for this compound, COc1ccc(C(CN(C)C)C2(O)CCCCC2)cc1 (stereo not shown) ?
52

----------
settings: Table S8
The reader will find reported plasma concentration, carp, this study (mean) values listed item by item below.

Field: example entries. Status: answers known.
- MOLECULE: "O=C(Nc1ccc(Cl)cc1)Nc1ccc(Cl)c(Cl)c1"
  TEST VALUE: "0.89 ng/g wet weight or ng/mL for plasma"
- MOLECULE: "CCN(CC)C(=O)c1cccc(C)c1 [DEET, N,N-Diethyl-m-toluamide]"
  TEST VALUE: "0.77 ng/g wet weight or ng/mL for plasma"

What plasma concentration, carp, this study (mean) value was documented for this molecule, `CCCCC(=O)N(Cc1ccc(-c2ccccc2-c2nnn[nH]2)cc1)[C@H](C(=O)O)C(C)C` ?
0.65 ng/g wet weight or ng/mL for plasma

What plasma concentration, carp, this study (mean) value was documented for this molecule, COc1ccc(C(CN(C)C)C2(O)CCCCC2)cc1 (centres unmarked) ?
0.10 ng/g wet weight or ng/mL for plasma

What plasma concentration, carp, this study (mean) value was documented for this molecule, `Cc1ccc(C)c(OCCCC(C)(C)C(=O)O)c1` ?
0.39 ng/g wet weight or ng/mL for plasma

----------
conditions: Cootes Paradise Marsh; range
OUTCOME MEASURE: Cootes carp plasma, range of concentrations

Field: example entries. Status: answers known.
- COMPOUND: "CCN(CC)C(=O)c1cccc(C)c1 [DEET, N,N-Diethyl-m-toluamide]"
  TEST VALUE: "0.19 to 1.15 ng/g"
- COMPOUND: "CCCCC(=O)N(Cc1ccc(-c2ccccc2-c2nnn[nH]2)cc1)[C@H](C(=O)O)C(C)C [Valsartan]"
  TEST VALUE: "0.42 to 1.23 ng/g"
- COMPOUND: "O=C(Nc1ccc(Cl)cc1)Nc1ccc(Cl)c(Cl)c1 [Triclocarban]"
  TEST VALUE: "0.32 to 3.35 ng/g"
- COMPOUND: "Cc1ccc(C)c(OCCCC(C)(C)C(=O)O)c1 [Gemfibrozil]"
  TEST VALUE: "0.16 to 0.83 ng/g"

Then this compound:
What Cootes carp plasma, range of concentrations value was documented for this compound, COc1ccc(C(CN(C)C)C2(O)CCCCC2)cc1 (centres unmarked) [Venlafaxine] ?
0.04 to 0.27 ng/g
